Recorded measurements of pIC50, one per entry
target: protein-protein interaction between Kras and SOS1 (biotin-tagged human Kras loaded with GDP, His-tagged human SOS1) (Homo sapiens (Human), UniProt P01116, G12D); assay: Protein-protein interaction inhibition between Kras and SOS1 (KrasG12D-SOS PPI) using AlphaScreen; type: biochemical; settings: AlphaScreen; biotin-tagged human Kras loaded with GDP, His-tagged human SOS1; read-out: KRAS G12D-SOS PPI IC50
Numbered stars: 1 amine (or outer) side, 2 acyl side, 3 side chain; on linkers, the order of the positions; unused ones are H or OH. Bridge positions count the residues as written; N and C are the ends. Square brackets hold non-standard residues; d marks the D form. Peptide text beside a SMILES is read from it. * marks the point of attachment. hPhe(3-Cl-4-CF3) = N[C@@H](CCc1ccc(C(F)(F)F)c(Cl)c1)C(=O)O; hPhe(3-F,4-CF3) = N[C@@H](CCc1ccc(C(F)(F)F)c(F)c1)C(=O)O; X102 = O=C([C@H](CCOc1ccc(Cl)cc1)N[*:1])[*:2]; NMedβ3hAla = C[C@H](CC(=O)[*:2])N(C)[*:1]; NMeGly(cPent) = CN[C@H](C(=O)O)C1CCCC1; NMeCha = CN[C@@H](CC1CCCCC1)C(=O)O; NMeChg = CN[C@H](C(=O)O)C1CCCCC1; NMeI = CC[C@H](C)[C@H](NC)C(=O)O; NMeD = CN[C@@H](CC(=O)O)C(=O)O; NMeL = CN[C@@H](CC(C)C)C(=O)O; d(β3hA) = C[C@@H](N)CC(=O)O; NMeS = CN[C@@H](CO)C(=O)O; NMeA = CN[C@@H](C)C(=O)O; Piperidide = C1CCN(*)CC1; Pyrrolidide = C1CCN(*)C1; Ac5c = NC1(C(=O)O)CCCC1; Aze = O=C(O)[C@@H]1CCN1; CH2CMe2OH = CC(C)(O)C*; Aib = CC(C)(N)C(=O)O; Isopentyl = CC(C)CC*; NEtG = CCNCC(=O)O; Sar = CNCC(=O)O; Propyl = CCC*
// scale note: pIC50 = -log10(conc_M); give the bare number

Compound	pIC50
CC[C@H](C)[C@@H]1NC(=O)[C@H](COCC(C)(C)O)N(C)C(=O)C[C@@H](C)NC(=O)[C@H](CC(C)C)N(C)C(=O)C(C)(C)NC(=O)[C@H](CC(C)C)N(C)C(=O)[C@H](CCc2ccc(C(F)(F)F)c(Cl)c2)NC(=O)CN(C)C(=O)[C@H](COCCC(C)C)N(C)C(=O)CN(C)C(=O)CN(CC)C1=O [Compound 1476] (cyclo([Aib][NMeL][d(β3hA)][NMeS](CH2CMe2OH)I[NEtG][Sar][NMeS](Isopentyl)[Sar][hPhe(3-Cl-4-CF3)][NMeL]))	7.34
CC[C@H](C)[C@@H]1NC(=O)[C@H](CC(C)C)N(C)C(=O)C[C@@H](C(=O)N2CCCC2)N(C)C(=O)[C@H]([C@@H](C)CC)N(C)C(=O)C2(CCCC2)NC(=O)[C@@H]2CCCN2C(=O)[C@H](CCc2ccc(C(F)(F)F)c(F)c2)NC(=O)CN(C)C(=O)[C@H](C2CCCC2)N(C)C(=O)[C@@H]2CCN2C(=O)[C@H](C)N(C)C1=O [Compound 313] ([NMeL]I[NMeA][Aze][NMeGly(cPent)][Sar][hPhe(3-F,4-CF3)]P[Ac5c][NMeI][NMeD]-Pyrrolidide; lactam N-11)	8.38
CCCOC[C@H]1C(=O)N(C)CC(=O)N[C@@H](CCc2ccc(C(F)(F)F)c(Cl)c2)C(=O)N2CCC[C@H]2C(=O)NC2(CCCC2)C(=O)N(C)[C@@H](C2CCCC2)C(=O)N(C)[C@H](C)CC(=O)N(C)[C@@H](CC(C)C)C(=O)N[C@@H]([C@@H](C)CC)C(=O)N(C)[C@@H](C)C(=O)N2CC[C@H]2C(=O)N1C [Compound 366] (cyclo([Ac5c][NMeGly(cPent)][NMedβ3hAla][NMeL]I[NMeA][Aze][NMeS](Propyl)[Sar][hPhe(3-Cl-4-CF3)]P))	8.40
CC[C@H](C)[C@@H]1NC(=O)[C@H](CC(C)C)N(C)C(=O)C[C@@H](C(=O)N(C)C)N(C)C(=O)[C@H](C2CCCC2)N(C)C(=O)C2(CCCC2)NC(=O)[C@H](CC(=O)N(C)C)N(C)C(=O)[C@H](CCc2ccc(C(F)(F)F)c(Cl)c2)NC(=O)CN(C)C(=O)[C@H](CC2CCCCC2)N(C)C(=O)[C@@H]2CCN2C(=O)[C@H](C)N(C)C1=O [Compound 2106] ([NMeL]I[NMeA][Aze][NMeCha][Sar][hPhe(3-Cl-4-CF3)][NMeD](NMe2)[Ac5c][NMeGly(cPent)][NMeD]-NMe2; lactam N-11)	8.70

Now for the compound whose pIC50 we want.
Query :: Kindly indicate its recorded pIC50. Item: CC[C@H](C)[C@@H]1NC(=O)[C@H](C)N(C)C(=O)C[C@@H](C(=O)N2CCCCC2)N(C)C(=O)[C@H](C2CCCCC2)N(C)C(=O)C2(CCCC2)NC(=O)[C@@H]2CCCN2C(=O)[C@H](CCOc2ccc(Cl)cc2)NC(=O)CN(C)C(=O)[C@H](CC2CCCCC2)N(C)C(=O)CN(C)C(=O)CN(C)C1=O [Compound 2040] ([NMeA]I[Sar][Sar][NMeCha][Sar][X102]P[Ac5c][NMeChg][NMeD]-Piperidide; lactam N-11)
Result :: 6.82

###

Recorded measurements of IC50, one per entry
target: protein-protein interaction between Kras and SOS1 (biotin-tagged human Kras loaded with GDP, His-tagged human SOS1) (Homo sapiens (Human), UniProt P01116, G12D); experiment: Protein-protein interaction inhibition between Kras and SOS1 (KrasG12D-SOS PPI) using AlphaScreen; type: biochemical; settings: AlphaScreen; biotin-tagged human Kras loaded with GDP, His-tagged human SOS1; read-out: KRAS G12D-SOS PPI IC50;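 also: kras produced in E. coli, Ni-coupled donor beads and streptavidin acceptor beads, excitation 680 nm with emission detected at 520–620 nm via singlet oxygen transfer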
Numbered stars: 1 amine (or outer) side, 2 acyl side, 3 side chain; on linkers, the order of the positions; unused ones are H or OH. Bridge positions count the residues as written; N and C are the ends. Square brackets hold non-standard residues; d marks the D form. Peptide text beside a SMILES is read from it. * marks the point of attachment. hPhe(3,5-F2-4-CF3) = N[C@@H](CCc1cc(F)c(C(F)(F)F)c(F)c1)C(=O)O; hPhe(3-Cl-4-CF3) = N[C@@H](CCc1ccc(C(F)(F)F)c(Cl)c1)C(=O)O; hPhe(3-F,4-CF3) = N[C@@H](CCc1ccc(C(F)(F)F)c(F)c1)C(=O)O; NMePhe(4-CF3) = CN[C@@H](Cc1ccc(C(F)(F)F)cc1)C(=O)O; NEtPhe(2-Cl) = CCN[C@@H](Cc1ccccc1Cl)C(=O)O; NMePhe(4-Me) = CN[C@@H](Cc1ccc(C)cc1)C(=O)O; NMedβ3hAla = C[C@H](CC(=O)[*:2])N(C)[*:1]; NMeGly(cPent) = CN[C@H](C(=O)O)C1CCCC1; Pro(4,4-F2) = O=C(O)[C@@H]1CC(F)(F)CN1; NMeI = CC[C@H](C)[C@H](NC)C(=O)O; NMeD = CN[C@@H](CC(=O)O)C(=O)O; NMeL = CN[C@@H](CC(C)C)C(=O)O; NMeV = CN[C@H](C(=O)O)C(C)C; NMeS = CN[C@@H](CO)C(=O)O; Morpholide = C1CN(*)CCO1; NMeA = CN[C@@H](C)C(=O)O; Piperidide = C1CCN(*)CC1; Ac5c = NC1(C(=O)O)CCCC1; Aze = O=C(O)[C@@H]1CCN1; Sar = CNCC(=O)O; Propyl = CCC*
Provide the reading as a plain figure in nM.

Below, each entry is followed by its recorded IC50 result.
Molecule	Unit label	IC50
CC[C@H](C)[C@@H]1NC(=O)[C@H](CC(C)C)N(C)C(=O)C[C@@H](C(=O)N(C)C)N(C)C(=O)[C@H](C2CCCC2)N(C)C(=O)C2(CCCC2)NC(=O)[C@@H]2CCCN2C(=O)[C@H](CCc2ccc(C(F)(F)F)c(F)c2)NC(=O)CN(C)C(=O)[C@H](Cc2ccc(C)cc2)N(C)C(=O)[C@@H]2CCN2C(=O)[C@H](C)N(C)C1=O [Compound 16] ([NMeL]I[NMeA][Aze][NMePhe(4-Me)][Sar][hPhe(3-F,4-CF3)]P[Ac5c][NMeGly(cPent)][NMeD]-NMe2; lactam N-11)	nM	0.7
CCCOC[C@H]1C(=O)N(C)CC(=O)N[C@@H](CCc2ccc(C(F)(F)F)c(F)c2)C(=O)N2CCC[C@H]2C(=O)NC2(CCCC2)C(=O)N(C)[C@@H](C2CCCC2)C(=O)N(C)[C@H](C)CC(=O)N(C)[C@@H](CC(C)C)C(=O)N[C@@H]([C@@H](C)CC)C(=O)N(C)[C@@H](C)C(=O)N2CC[C@H]2C(=O)N1C [Compound 776] (cyclo([Ac5c][NMeGly(cPent)][NMedβ3hAla][NMeL]I[NMeA][Aze][NMeS](Propyl)[Sar][hPhe(3-F,4-CF3)]P))	nM	7.3
CC[C@H](C)[C@@H]1NC(=O)[C@H](CC(C)C)N(C)C(=O)C[C@@H](C(=O)N2CCOCC2)N(C)C(=O)[C@H]([C@@H](C)CC)N(C)C(=O)C2(CCCC2)NC(=O)[C@@H]2CC(F)(F)CN2C(=O)[C@H](CCc2cc(F)c(C(F)(F)F)c(F)c2)NC(=O)CN(C)C(=O)[C@H](Cc2ccc(C(F)(F)F)cc2)N(C)C(=O)[C@@H]2CCN2C(=O)[C@H](C)N(C)C1=O [Compound 1348] ([NMeL]I[NMeA][Aze][NMePhe(4-CF3)][Sar][hPhe(3,5-F2-4-CF3)][Pro(4,4-F2)][Ac5c][NMeI][NMeD]-Morpholide; lactam N-11)	nM	0.62

Now for the molecule whose IC50 we want.
Query :: Kindly indicate its recorded IC50. Item: CC[C@H](C)[C@@H]1NC(=O)[C@H](C)N(C)C(=O)C[C@@H](C(=O)N2CCCCC2)N(C)C(=O)[C@H](C(C)C)N(C)C(=O)C2(CCCC2)NC(=O)[C@H](Cc2ccccc2Cl)N(CC)C(=O)[C@H](CCc2ccc(C(F)(F)F)c(Cl)c2)NC(=O)CN(C)C(=O)[C@H](Cc2ccc(C)cc2)N(C)C(=O)CN(C)C(=O)CN(C)C1=O [Compound 2166] ([NMeA]I[Sar][Sar][NMePhe(4-Me)][Sar][hPhe(3-Cl-4-CF3)][NEtPhe(2-Cl)][Ac5c][NMeV][NMeD]-Piperidide; lactam N-11)
Result :: 330

Just for reference, patent US20240148821A1 is where these values come from.
